Assay protocol: CelltiterGlo viability cell assay
Type: cell-based
Measurement context: human, CAL851 cells, CAL851, 3 day, 0.3 uM; read-out: viability Replicate 1
From the text: Supplementary Figure 13. […] Viability of (a) Multiple Myeloma lines and (b) Breast Cancer cell lines following 3 or 6 days treatment with […] manufacturer’s instructions as described in the Supplementary methods. Data are normalized to DMSO control. N=3 biological replicates, +/- SEM. Source data are provided as a Source Data […] CelltiterGlo viability cell assay […]
Reported endpoint: viability at 3 day, 0.3 µM
Give the number first and the unit second.

I would be grateful if you could share the reported viability at 3 day, 0.3 µM for `COc1cc(OC)cc(-c2noc(N3CCN(C)C4(CCN(c5ccnc(C)c5)CC4)C3)n2)c1` .
94.7%

====

Assay protocol: CelltiterGlo viability cell assay
Assay type: cell-based
Measurement context: human, HCC1806 breast cancer cells, HCC1806, 3 day, 9.5 uM; read-out: viability Average
Reported endpoint: viability at 3 day, 9.5 µM (%)
The response must be a number in % with no trailing unit.

I would be grateful if you could share the reported viability at 3 day, 9.5 µM for `COc1cc(OC)cc(-c2noc(N3CCN(C)C4(CCN(c5ccnc(C)c5)CC4)C3)n2)c1` .
37.6

====

Assay protocol: CelltiterGlo viability cell assay
Format: cell-based
Measurement context: human, HCC1806 breast cancer cells, HCC1806, 3 day, 3 uM; read-out: viability Replicate 3
Reported endpoint: viability at 3 day, 3 µM (%)
The response must be a number in % with no trailing unit.

I would be grateful if you could share the reported viability at 3 day, 3 µM for `COc1cc(OC)cc(-c2noc(N3CCN(C)C4(CCN(c5ccnc(C)c5)CC4)C3)n2)c1` .
70.5

====

Assay protocol: CelltiterGlo viability cell assay
Type: cell-based
Measurement context: human, CAL851 breast cancer cells, CAL851, 3 day, 0.03 uM; read-out: viability Replicate 1
Reported endpoint: viability at 3 day, 0.03 µM (%)
The response must be a number in % with no trailing unit.

I would be grateful if you could share the reported viability at 3 day, 0.03 µM for COc1cc(OC)cc(-c2noc(N3CCN(C)C4(CCN(c5ccnc(C)c5)CC4)C3)n2)c1 [MRK-740] .
93.2

====

Assay protocol: CelltiterGlo viability cell assay
Type: cell-based
Measurement context: human, RPMI-8226 multiple myeloma cells, 8226, 3 day, 0.3 uM; read-out: viability Replicate 3
Reported endpoint: viability at 3 day, 0.3 µM (%)
The response must be a number in % with no trailing unit.

I would be grateful if you could share the reported viability at 3 day, 0.3 µM for `COc1cc(OC)cc(-c2noc(N3CCN(C)C4(CCN(c5ccnc(C)c5)CC4)C3)n2)c1` .
104

====

Assay protocol: CelltiterGlo viability cell assay
Format: cell-based
Measurement context: human, MDA-MB-436 breast cancer cells, MDA MB436, 6 day, 9.5 uM; read-out: viability Average
Reported endpoint: viability at 6 day, 9.5 µM (%)
The response must be a number in % with no trailing unit.

I would be grateful if you could share the reported viability at 6 day, 9.5 µM for COc1cc(OC)cc(-c2noc(N3CCN(C)C4(CCN(c5ccnc(C)c5)CC4)C3)n2)c1 [MRK-740] .
70.8

====

Assay protocol: CelltiterGlo viability cell assay
Format: cell-based
Measurement context: human, HCC1143 breast cancer cells, HCC1143, 3 day, 0.3 uM; read-out: viability Replicate 3
Reported endpoint: viability at 3 day, 0.3 µM (%)
The response must be a number in % with no trailing unit.

I would be grateful if you could share the reported viability at 3 day, 0.3 µM for `COc1cc(OC)cc(-c2noc(N3CCN(C)C4(CCN(c5ccnc(C)c5)CC4)C3)n2)c1` .
96.9

====

Target or test system: PRDM9 (Homo sapiens)
Construct: PRDM9 (amino acids: 195–415)
Sequence (Q9NQV7 195-415): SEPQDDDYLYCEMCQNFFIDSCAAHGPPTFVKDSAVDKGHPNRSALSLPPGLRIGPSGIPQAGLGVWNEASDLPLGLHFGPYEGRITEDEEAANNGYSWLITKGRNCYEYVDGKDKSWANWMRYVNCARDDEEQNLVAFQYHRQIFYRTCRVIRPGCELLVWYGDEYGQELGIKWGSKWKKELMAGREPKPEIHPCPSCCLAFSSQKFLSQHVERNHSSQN
Assay protocol: MOA determination: IC50 at varying SAM or peptide concentrations (SPA)
Assay type: biochemical
Measurement context: 20 µM peptide, varying SAM; read-out: Ki, estimated from asymptote of Fig 2d
Reported endpoint: Ki

What measured Ki is associated with COc1cc(OC)cc(-c2noc(N3CCN(C)C4(CCN(c5ccnc(C)c5)CC4)C3)n2)c1 [MRK-740] on PRDM9 (Homo sapiens)?
~160 nM

====

Assay protocol: CelltiterGlo viability cell assay
Format: cell-based
Measurement context: human, SKMM2 cells (multiple myeloma line), SKMM2, 6 day, 0.03 uM; read-out: viability Replicate 1
Reported endpoint: viability at 6 day, 0.03 µM (%)
The response must be a number in % with no trailing unit.

I would be grateful if you could share the reported viability at 6 day, 0.03 µM for `COc1cc(OC)cc(-c2noc(N3CCN(C)C4(CCN(c5ccnc(C)c5)CC4)C3)n2)c1` .
90.3

====

Assay protocol: CelltiterGlo viability cell assay
Assay type: cell-based
Measurement context: human, SKMM2 cells (multiple myeloma line), SKMM2, 6 day, 0.01 uM; read-out: viability Replicate 2
From the text: Supplementary Figure 13. […] Viability of (a) Multiple Myeloma lines and (b) Breast Cancer cell lines following 3 or 6 days treatment with […] manufacturer’s instructions as described in the Supplementary methods. Data are normalized to DMSO control. N=3 biological replicates, +/- SEM. Source data are provided as a Source Data […] CelltiterGlo viability cell assay […]
Reported endpoint: viability at 6 day, 0.01 µM (%)
The response must be a number in % with no trailing unit.

I would be grateful if you could share the reported viability at 6 day, 0.01 µM for `COc1cc(OC)cc(-c2noc(N3CCN(C)C4(CCN(c5ccnc(C)c5)CC4)C3)n2)c1` .
103

====

Assay protocol: CelltiterGlo viability cell assay
Format: cell-based
Measurement context: human, SKMM2 multiple myeloma cells, SKMM2, 6 day, 1 uM; read-out: viability Replicate 3
Reported endpoint: viability at 6 day, 1 µM (%)
The response must be a number in % with no trailing unit.

I would be grateful if you could share the reported viability at 6 day, 1 µM for COc1cc(OC)cc(-c2noc(N3CCN(C)C4(CCN(c5ccnc(C)c5)CC4)C3)n2)c1 [MRK-740] .
96.3

====

Assay protocol: CelltiterGlo viability cell assay
Type: cell-based
Measurement context: human, RPMI-8226 multiple myeloma cells, 8226, 6 day, 30 uM; read-out: viability Replicate 2
Reported endpoint: viability at 6 day, 30 µM (%)
The response must be a number in % with no trailing unit.

I would be grateful if you could share the reported viability at 6 day, 30 µM for `COc1cc(OC)cc(-c2noc(N3CCN(C)C4(CCN(c5ccnc(C)c5)CC4)C3)n2)c1` .
56.4

====

Assay protocol: CelltiterGlo viability cell assay
Type: cell-based
Measurement context: human, RPMI-8226 multiple myeloma cells, 8226, 3 day, 1 uM; read-out: viability Replicate 2
Reported endpoint: viability at 3 day, 1 µM (%)
The response must be a number in % with no trailing unit.

I would be grateful if you could share the reported viability at 3 day, 1 µM for `COc1cc(OC)cc(-c2noc(N3CCN(C)C4(CCN(c5ccnc(C)c5)CC4)C3)n2)c1` .
102

====

Assay protocol: CelltiterGlo viability cell assay
Type: cell-based
Measurement context: human, MDA-MB-436 breast cancer cells, MDA MB436, 3 day, 0.03 uM; read-out: viability Replicate 3
Source text: Supplementary Figure 13. […] Viability of (a) Multiple Myeloma lines and (b) Breast Cancer cell lines following 3 or 6 days treatment with […] manufacturer’s instructions as described in the Supplementary methods. Data are normalized to DMSO control. N=3 biological replicates, +/- SEM. Source data are provided as a Source Data […] CelltiterGlo viability cell assay […]
Reported endpoint: viability at 3 day, 0.03 µM (%)
The response must be a number in % with no trailing unit.

I would be grateful if you could share the reported viability at 3 day, 0.03 µM for `COc1cc(OC)cc(-c2noc(N3CCN(C)C4(CCN(c5ccnc(C)c5)CC4)C3)n2)c1` .
92

====

Assay protocol: CelltiterGlo viability cell assay
Assay type: cell-based
Measurement context: human, CAL851 breast cancer cells, CAL851, 3 day, 1 uM; read-out: viability Replicate 1
Reported endpoint: viability at 3 day, 1 µM (%)
The response must be a number in % with no trailing unit.

I would be grateful if you could share the reported viability at 3 day, 1 µM for COc1cc(OC)cc(-c2noc(N3CCN(C)C4(CCN(c5ccnc(C)c5)CC4)C3)n2)c1 [MRK-740] .
88.2

====

Assay protocol: CelltiterGlo viability cell assay
Format: cell-based
Measurement context: human, CAL851 breast cancer cells, CAL851, 6 day, 0.3 uM; read-out: viability Replicate 1
Reported endpoint: viability at 6 day, 0.3 µM (%)
The response must be a number in % with no trailing unit.

I would be grateful if you could share the reported viability at 6 day, 0.3 µM for COc1cc(OC)cc(-c2noc(N3CCN(C)C4(CCN(c5ccnc(C)c5)CC4)C3)n2)c1 [MRK-740] .
121

Value source: paper PMC6917776
